Every entry's value here was drawn from a melting point compilation (Tetko et al.; mined from patent text by program, amines drawn as free bases though some values may be those of a salt).

melting point by entry:

>  <compound>
Cc1nc(C)c(-c2[nH]nc3c2C(=O)c2c(NC(=O)NN4CCN(C)CC4)cccc2-3)s1

>  <melting point>
278 °C

$$$$
>  <compound>
N#CC1c2cc(Cl)c(Cl)cc2C=CN1C(=O)c1ccccc1 (stereo not given)

>  <melting point>
194 to 196 °C

$$$$
>  <compound>
CCOC(=O)[C@H](Cc1ccc(-c2c(OC)cc(CO)cc2OC)cc1)NC(=O)c1c(F)cccc1F

>  <melting point>
70 to 72 °C

$$$$
>  <compound>
CCOC(=O)C1=Cc2cc(C)c(O)cc2OC1C(F)(F)F (stereo not given)

>  <melting point>
151 to 153 °C

$$$$
>  <compound>
COC(=O)c1ccccc1C(=O)c1ccc(-n2ccnc2)cc1

>  <melting point>
134 to 136 °C

$$$$
